target: DPPIV obtained from swine kidney (Sus scrofa, UniProt P22411); construct: DPPIV obtained from swine kidney; from tissue; host or cells: swine kidney; test: Assay for the DPPIV-inhibiting activity; format: biochemical; conditions: IC50 (nM), DPPIV 10 mU/mL; Gly-Pro-p-nitroanilide 0.33 mM; absorbance 405 nm
Sequence (P22411 whole entry): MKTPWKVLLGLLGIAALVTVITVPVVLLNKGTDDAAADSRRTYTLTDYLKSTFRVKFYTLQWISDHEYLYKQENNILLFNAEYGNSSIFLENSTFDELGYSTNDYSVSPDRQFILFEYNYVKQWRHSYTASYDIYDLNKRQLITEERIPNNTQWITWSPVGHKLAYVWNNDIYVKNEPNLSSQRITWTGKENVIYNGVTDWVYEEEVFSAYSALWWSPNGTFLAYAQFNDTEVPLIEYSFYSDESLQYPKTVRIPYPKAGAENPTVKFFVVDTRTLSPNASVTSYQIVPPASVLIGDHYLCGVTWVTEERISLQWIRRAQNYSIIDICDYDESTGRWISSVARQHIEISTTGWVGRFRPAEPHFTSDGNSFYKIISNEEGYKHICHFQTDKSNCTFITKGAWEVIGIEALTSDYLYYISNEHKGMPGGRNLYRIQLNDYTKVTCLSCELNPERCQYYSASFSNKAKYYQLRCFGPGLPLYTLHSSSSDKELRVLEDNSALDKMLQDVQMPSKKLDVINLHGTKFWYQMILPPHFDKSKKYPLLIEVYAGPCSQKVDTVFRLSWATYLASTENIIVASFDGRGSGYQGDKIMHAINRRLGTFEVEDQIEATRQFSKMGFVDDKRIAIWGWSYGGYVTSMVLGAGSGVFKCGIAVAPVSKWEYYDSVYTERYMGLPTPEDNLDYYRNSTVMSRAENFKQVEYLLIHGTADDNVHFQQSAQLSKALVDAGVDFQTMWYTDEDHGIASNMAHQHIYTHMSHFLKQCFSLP
Structures can show the parent of a compound that is named as a salt.
Each entry below carries its reported IC50.

- compound: "CC#CCn1c(N2CCNCC2)nc2c1c(=O)n(C)c(=O)n2CC [Example 396, trifluoroacetate]"
  assayed target: "DPPIV obtained from swine kidney (Sus scrofa, UniProt P22411)"
  IC50 (nM): 197
- compound: "CC#CCn1c(N2CCNCC2)nc2c1c(=O)n(CCc1ccccc1)c(=O)n2CC(=O)OCC [Example 416, hydrochloride]"
  assayed target: "DPPIV obtained from swine kidney (Sus scrofa, UniProt P22411)"
  IC50 (nM): 4.02
- compound: "CC#CCn1c(N2CCNCC2)nc2c1c(=O)n(CCc1ccccc1)c(=O)n2C [Example 367, trifluoroacetate]"
  assayed target: "DPPIV obtained from swine kidney (Sus scrofa, UniProt P22411)"
  IC50 (nM): 4.56

---

Each entry below carries its reported IC50.
molecular target: DPPIV obtained from swine kidney (Sus scrofa, UniProt P22411); construct: DPPIV obtained from swine kidney; from tissue; host or cells: swine kidney; test: Assay for the DPPIV-inhibiting activity; format: biochemical; conditions: IC50 (nM), DPPIV 10 mU/mL; Gly-Pro-p-nitroanilide 0.33 mM; absorbance 405 nm
Where a name gives a salt, the structure may show the parent alone.
property label: IC50

- compound: "O=c1c2c(cnn1CCc1ccccc1)nc(N1CCNCC1)n2Cc1ccccc1 [Example 311, trifluoroacetate]"
  property label: "IC50"
  measured result: "77.5 nM"
- compound: "CC#CCn1c(N2CCNCC2)nc2c1c(=O)n(CCc1ccccc1)c(=O)n2CC(=O)NC [Example 419, hydrochloride]"
  property label: "IC50"
  measured result: "1.55 nM"
- compound: "CC#CCn1c(N2CCNCC2)nc2c1c(=O)n(CC#N)c(=O)n2C [Example 359, trifluoroacetate]"
  property label: "IC50"
  measured result: "353 nM"
- compound: "CC#CCn1c(N2CCNCC2)nc2c1c(=O)n(CCc1ccccc1)c(=O)n2CC(=O)Nc1ccccc1 [Example 421, hydrochloride]"
  property label: "IC50"
  measured result: "3.37 nM"
- compound: "CC#CCn1c(N2CCNCC2)nc2c1c(=O)n(CCc1ccccc1)c(=O)n2CC(=O)N1CCCC1 [Example 418, hydrochloride]"
  property label: "IC50"
  measured result: "1.14 nM"
- compound: "CC#CCn1c(=O)c2c(nc(N3CCNCC3)n2CC#CC)n(C)c1=O [Example 358, trifluoroacetate]"
  property label: "IC50"
  measured result: "357 nM"
- compound: "CC#CCn1c(N2CCNCC2)nc2c1c(=O)n(C)c(=O)n2CCC [Example 403, trifluoroacetate]"
  property label: "IC50"
  measured result: "266 nM"

---

biological target: DPPIV obtained from swine kidney (Sus scrofa, UniProt P22411); construct: DPPIV obtained from swine kidney; from tissue; host or cells: swine kidney; assay: Assay for the DPPIV-inhibiting activity; type: biochemical; conditions: DPPIV 10 mU/mL; Gly-Pro-p-nitroanilide 0.33 mM; absorbance 405 nm; read-out: IC50
Structures can show the parent of a compound that is named as a salt.
Decision: IC50 beneath 100 nM gives Condition met; IC50 meeting or exceeding 100 nM gives Condition not met.

- compound: "CC#CCn1c(N2CCNCC2)nc2nc(OC(C(=O)OC)c3ccccc3)n(C)c(=O)c21 (stereo not drawn) [Example 4, trifluoroacetate]"
  assigned label: "Condition not met"
- compound: "CC#CCn1c(N2CCNCC2)nc2c1c(=O)n(C)c(=O)n2CC(=O)c1ccccc1"
  assigned label: "Condition not met"
- compound: "CC#CCn1c(N2CCNCC2)nc2cnn(C)c(=O)c21 [Example 119]"
  assigned label: "Condition not met"
- compound: "CC#CCn1c(N2CCNCC2)nc2nc(OC(C)C(=O)OCC)n(C)c(=O)c21 (stereo not drawn)"
  assigned label: "Condition not met"
- compound: "CC#CCn1c(N2CCNCC2)nc2c1c(=O)n(C)c(=O)n2C(C(=O)OC)c1ccccc1 (stereo not drawn) [Example 402, trifluoroacetate]"
  assigned label: "Condition not met"
- compound: "CC#CCn1c(N2CCNCC2)nc2c1c(=O)n(CC(=O)OC)c(=O)n2C [Example 355, trifluoroacetate]"
  assigned label: "Condition not met"
- compound: "CC#CCn1c(N2CCNCC2)nc2nc(SCCC)n(C)c(=O)c21 [Example 129, trifluoroacetate]"
  assigned label: "Condition not met"
- compound: "CC#CCn1c(N2CCNCC2)nc2nc(Oc3ccccc3C(N)=O)n(Cc3ccc(C#N)cc3)c(=O)c21"
  assigned label: "Condition met"
- compound: "CC#CCn1c(N2CCNCC2)nc2cnn(C)c(=O)c21 [Example 115, trifluoroacetate]"
  assigned label: "Condition not met"
- compound: "CC#CCn1c(N2CCNCC2)nc2c1c(=O)n(C)c(=O)n2CC(=O)OC [Example 398, trifluoroacetate]"
  assigned label: "Condition not met"
- compound: "CC#CCn1c(N2CCNCC2)nc2nc(Oc3ccccc3C(N)=O)n(C)c(=O)c21"
  assigned label: "Condition met"
- compound: "CC#CCn1c(N2CCNCC2)nc2nc(OCC)n(C)c(=O)c21"
  assigned label: "Condition not met"
- compound: "CC#CCn1c(N2CCNCC2)nc2c1c(=O)n(C)c(=O)n2CCOCC [Example 407, trifluoroacetate]"
  assigned label: "Condition not met"
- compound: "CC#CCn1c(N2CCNCC2)nc2nc(SCC(=O)O)n(C)c(=O)c21 [Example 79, trifluoroacetate]"
  assigned label: "Condition met"
- compound: "CC#CCn1c(N2CCNCC2)nc2c1c(=O)n(C)c(=O)n2C1CCNC1=O (stereo not drawn) [Example 410, hydrochloride]"
  assigned label: "Condition met"
- compound: "CC#CCn1c(N2CCNCC2)nc2nc(C(N)=O)n(C)c(=O)c21"
  assigned label: "Condition met"
- compound: "CC#CCn1c(N2CCNCC2)nc2ccn(CC(=O)c3ccccc3)c(=O)c21 [Example 341, trifluoroacetate]"
  assigned label: "Condition met"
- compound: "Cn1c(=O)n(CCc2ccccc2)c(=O)c2c1nc(N1CCNCC1)n2-c1ccccc1Cl"
  assigned label: "Condition met"
- compound: "CC#CCn1c(N2CCNCC2)nc2c1c(=O)n(C)c(=O)n2C(C)C [Example 408, trifluoroacetate]"
  assigned label: "Condition not met"
- compound: "CC#CCn1c(N2CCNCC2)nc2c1c(=O)n(C)c(=O)n2CC(=O)C(C)(C)C [Example 409, trifluoroacetate]"
  assigned label: "Condition not met"
- compound: "CC#CCn1c(N2CCNCC2)nc2c1c(=O)n(CC(=O)c1ccccc1)c(=O)n2CCOCC"
  assigned label: "Condition met"
- compound: "CC#CCn1c(N2CCNCC2)nc2nc(OC3(C(=O)OCC)CC3)n(C)c(=O)c21"
  assigned label: "Condition not met"
- compound: "CC#CCn1c(N2CCNCC2)nc2c1c(=O)n(C)c(=O)n2C(C)C(=O)OCC (stereo not drawn) [Example 405, trifluoroacetate]"
  assigned label: "Condition not met"
- compound: "CC#CCn1c(N2CCNCC2)nc2c1c(=O)n(C)c(=O)n2CC1CCCO1 (stereo not drawn) [Example 400, trifluoroacetate]"
  assigned label: "Condition not met"
- compound: "CC#CCn1c(N2CCNCC2)nc2c1c(=O)n(CC(=O)c1ccccc1)c(=O)n2CC(=O)OC"
  assigned label: "Condition met"
- compound: "CC#CCn1c(N2CCNCC2)nc2c1c(=O)n(CC(=O)c1ccccc1)c(=O)n2C"
  assigned label: "Condition met"
- compound: "CC#CCn1c(N2CCNCC2)nc2nc(OCC(=O)OCC)n(C)c(=O)c21"
  assigned label: "Condition not met"

---

biological target: DPPIV obtained from swine kidney (Sus scrofa); construct: DPPIV obtained from swine kidney; from tissue; host or cells: swine kidney; test: Assay for the DPPIV-inhibiting activity; assay type: biochemical; conditions: IC50 (nM), DPPIV 10 mU/mL; Gly-Pro-p-nitroanilide 0.33 mM; absorbance 405 nm
Where a name gives a salt, the structure may show the parent alone.
Each entry below carries its reported IC50.

- molecule: "C#CCNC(=O)Cn1c(=O)n(CCc2ccccc2)c(=O)c2c1nc(N1CCNCC1)n2CC#CC [Example 422, hydrochloride]"
  IC50: "0.472 nM"
- molecule: "CC#CCn1c(N2CCNCC2)nc2c1c(=O)[nH]c(=O)n2C"
  IC50: "285 nM"
- molecule: "CC#CCn1c(N2CCNCC2)nc2c1c(=O)n(CCc1ccccc1)c(=O)n2CC(=O)NC1CC1 [Example 420, hydrochloride]"
  IC50: "1.7 nM"
- molecule: "C#CCn1c(=O)c2c(nc(N3CCNCC3)n2CC#CC)n(C)c1=O [Example 357, trifluoroacetate]"
  IC50: "323 nM"

The values you see were collected from patent US20060094722A1.
